- protocol.notes: Single ascending dose study, fasted and fed: safety and non-compartmental plasma PK
- Format: in vivo, healthy volunteers (human)
- test.parameters: human, plasma, oral, 200 mg, median; single 200 mg dose, fasting state; plasma; N=8; read-out: Tmax
measurement.label: Tmax (min)
Quick note: give the figure in min, leave out the unit.

Input line: For CC(C)(C)OC(=O)N[C@H]1CCCCC/C=C\[C@@H]2C[C@@]2(C(=O)NS(=O)(=O)C2CC2)NC(=O)[C@@H]2C[C@@H](OC(=O)N3Cc4cccc(F)c4C3)CN2C1=O , what is its reported Tmax?
Output line: 45

====

- protocol.notes: Single ascending dose study, fasted and fed: safety and non-compartmental plasma PK
- Type: in vivo, healthy volunteers (human)
- test.parameters: human, plasma, oral, 1600 mg, Geometric Mean of 10 subjects; single 1600 mg dose, Fed; read-out: t½ (converted)
measurement.label: half-life (min)
Quick note: give the figure in min, leave out the unit.

Input line: For CC(C)(C)OC(=O)N[C@H]1CCCCC/C=C\[C@@H]2C[C@@]2(C(=O)NS(=O)(=O)C2CC2)NC(=O)[C@@H]2C[C@@H](OC(=O)N3Cc4cccc(F)c4C3)CN2C1=O , what is its reported half-life?
Output line: 150

====

- protocol.notes: Single ascending dose study, fasted and fed: safety and non-compartmental plasma PK
- Format: in vivo, healthy volunteers (human)
- test.parameters: human, plasma, oral, 1600 mg, Mean of 10 subjects; single 1600 mg dose, Fed; read-out: AUC0-inf
measurement.label: AUC0-inf (ng·h/mL)
Quick note: give the figure in ng·h/mL, leave out the unit.

Input line: For CC(C)(C)OC(=O)N[C@H]1CCCCC/C=C\[C@@H]2C[C@@]2(C(=O)NS(=O)(=O)C2CC2)NC(=O)[C@@H]2C[C@@H](OC(=O)N3Cc4cccc(F)c4C3)CN2C1=O [ITMN-191] , what is its reported AUC0-inf?
Output line: 1070

====

- measured.target: NS3-NS4 (Hepatitis C virus genotype 1a)
- Sequence (P27958 1027-1657): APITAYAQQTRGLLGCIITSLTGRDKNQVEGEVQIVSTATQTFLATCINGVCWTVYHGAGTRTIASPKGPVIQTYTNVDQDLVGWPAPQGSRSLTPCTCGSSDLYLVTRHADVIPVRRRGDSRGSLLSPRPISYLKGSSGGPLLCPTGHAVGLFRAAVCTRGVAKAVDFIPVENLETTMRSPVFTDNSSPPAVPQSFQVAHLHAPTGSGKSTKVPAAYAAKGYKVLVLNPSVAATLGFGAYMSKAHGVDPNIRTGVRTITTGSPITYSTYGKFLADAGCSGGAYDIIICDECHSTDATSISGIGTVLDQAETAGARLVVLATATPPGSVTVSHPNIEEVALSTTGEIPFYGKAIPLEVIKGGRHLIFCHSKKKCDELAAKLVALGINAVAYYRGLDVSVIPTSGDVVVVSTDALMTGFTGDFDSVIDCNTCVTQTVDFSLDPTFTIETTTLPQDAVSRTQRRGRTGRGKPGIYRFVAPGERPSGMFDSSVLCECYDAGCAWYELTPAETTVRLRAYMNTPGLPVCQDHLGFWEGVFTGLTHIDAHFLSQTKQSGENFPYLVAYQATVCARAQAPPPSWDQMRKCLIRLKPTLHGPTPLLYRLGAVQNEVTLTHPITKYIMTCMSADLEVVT
- Sequence (P27958 1658-1711): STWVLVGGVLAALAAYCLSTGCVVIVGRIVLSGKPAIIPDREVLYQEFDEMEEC
- protocol.notes: NS3-NS4 activity, IC50 (Example 37, Table 8)
- Format: biochemical
pIC50: −log10 of the molar value.
Reported pIC50 values are given for each entry in this list.

Input line: For CCC1(OC(=O)N[C@H]2CCCCC/C=C\[C@@H]3C[C@@]3(C(=O)NS(=O)(=O)C3CC3)NC(=O)[C@@H]3C[C@@H](OC(=O)N4Cc5cccc(F)c5C4)CN3C2=O)CC1 [Compound 442] , what is its reported pIC50?
Output line: > 7.00

More entries:
Input line: For CC(C)(C)OC(=O)N[C@H]1CCCCC/C=C\[C@@H]2C[C@@]2(C(=O)NS(=O)(=O)c2ccc(Cl)s2)NC(=O)[C@@H]2C[C@@H](OC(=O)N3Cc4cccc(F)c4C3)CN2C1=O [Compound 535] , what is its reported pIC50?
Output line: > 7.00

Input line: Proceed to O=C1N[C@]2(C(=O)NS(=O)(=O)C3CC3)C[C@H]2/C=C\CCCCC[C@H](NC(=O)N2CCC2)C(=O)N2C[C@H](OC(=O)N3Cc4cccc(F)c4C3)C[C@@H]12 [Compound 417]
Output line: > 7.00

====

- protocol.notes: Single ascending dose study, fasted and fed: safety and non-compartmental plasma PK
- Assay type: in vivo, healthy volunteers (human)
- test.parameters: human, plasma, oral, 400 mg, median; single 400 mg dose (Fasted); plasma; N=10; read-out: Cmax
measurement.label: Cmax (ng/mL)
Quick note: give the figure in ng/mL, leave out the unit.

Input line: For CC(C)(C)OC(=O)N[C@H]1CCCCC/C=C\[C@@H]2C[C@@]2(C(=O)NS(=O)(=O)C2CC2)NC(=O)[C@@H]2C[C@@H](OC(=O)N3Cc4cccc(F)c4C3)CN2C1=O , what is its reported Cmax?
Output line: 63.8
